Data provenance: patent US20240174671A1

Below, each entry is listed alongside its reported Ki.
# targetEntity: human σ2/TMEM97 receptor (Homo sapiens, UniProt Q5BJF2)
# Construct: expressed in transfected cells; host or cells: HEK-293
# Sequence (Q5BJF2 whole entry): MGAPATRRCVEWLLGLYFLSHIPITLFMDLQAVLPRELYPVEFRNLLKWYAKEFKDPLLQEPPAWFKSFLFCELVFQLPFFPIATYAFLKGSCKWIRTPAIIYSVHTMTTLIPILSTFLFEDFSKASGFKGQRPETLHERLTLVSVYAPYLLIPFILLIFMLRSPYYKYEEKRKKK
# protocol: Binding assay to human σ2/TMEM97 receptor ([3H]-DTG)
# conditionDescription: transfected HEK-293 membranes, 10 nM [3H]-DTG, 25° C., 120 minutes; read-out: Binding σ-[…] (binding to σ2-receptor expressed as Ki)

{"molecule": "CC1(C)CN(C(=O)N2CCC3(CCN(CC4CCOCC4)CC3)C2)c2cccnc21 [Example 144]", "targetEntity": "human σ2/TMEM97 receptor (Homo sapiens, UniProt Q5BJF2)", "Ki": "< 100 nM"}
{"molecule": "Cc1ccc2c(n1)C(C)(C)CN2C(=O)N1CCC(N(C)Cc2ccncc2)CC1 [Example 75]", "targetEntity": "human σ2/TMEM97 receptor (Homo sapiens, UniProt Q5BJF2)", "Ki": "500 to 1000 nM"}
{"molecule": "Cc1ccc2c(n1)C(C)(C)CN2C(=O)N1CCC(N(C)Cc2ccccn2)CC1 [Example 73]", "targetEntity": "human σ2/TMEM97 receptor (Homo sapiens, UniProt Q5BJF2)", "Ki": "500 to 1000 nM"}
{"molecule": "CC1(C)CN(C(=O)N2CCC3(CCN(Cc4ccc(C(F)(F)F)nc4)CC3)C2)c2cccnc21 [Example 155]", "targetEntity": "human σ2/TMEM97 receptor (Homo sapiens, UniProt Q5BJF2)", "Ki": "< 100 nM"}
{"molecule": "Cc1ccc2c(n1)C(C)(C)CN2C(=O)[C@H]1CC[C@H](N(C)Cc2ccc(F)cc2)CC1 [Example 182]", "targetEntity": "human σ2/TMEM97 receptor (Homo sapiens, UniProt Q5BJF2)", "Ki": "< 100 nM"}
{"molecule": "Cc1ccc2c(n1)C(C)(C)CN2C(=O)N1CCC2(CCN(CC3CCOCC3)CC2)CC1 [Example 161]", "targetEntity": "human σ2/TMEM97 receptor (Homo sapiens, UniProt Q5BJF2)", "Ki": "< 100 nM"}
{"molecule": "Cc1ccc2c(n1)C(C)(C)CN2C(=O)N1CCC2(CCN(Cc3cccnc3)CC2)C1 [Example 98]", "targetEntity": "human σ2/TMEM97 receptor (Homo sapiens, UniProt Q5BJF2)", "Ki": "< 100 nM"}
{"molecule": "COc1cccc(CN2CCC3(CC2)CCN(C(=O)N2CC(C)(C)c4nc(C)ccc42)C3)c1 [Example 95]", "targetEntity": "human σ2/TMEM97 receptor (Homo sapiens, UniProt Q5BJF2)", "Ki": "< 100 nM"}
